Quick list: growth per entry.
Tested on: RXF 393 renal
protocolText: NCI-60 one-dose screen, 48 h (100 = growth as untreated, 0 = no growth, -100 = all killed)
assayConditions: 10 µM unless noted
This is part of a sample that, as a whole, favours compounds with a hit. Of some 83,000 tested, about 20% had one in any assay.
Respond with the bare value in %.

Request: Give its growth value. Item: CS(=O)/C(C#N)=C\C=C\c1cccc(Cl)c1 (centres undefined)
Response: 49.5

Request: Give its growth value. Item: COc1ccc(C2CC(c3ccccc3)=NN2C(=O)c2cc(OC)c(OC)c(OC)c2)cc1O (centres undefined)
Response: -9.96

Request: Give its growth value. Item: O=C(CSc1nnnn1-c1ccccc1)Nc1ccc(Oc2ccccc2)cc1
Response: 111

Request: Give its growth value. Item: COc1cc(-c2cc(-c3ccc(Nc4nc(Nc5ccc(Cl)cc5)nc(Nc5ccc(Cl)cc5)n4)cc3)no2)cc(OC)c1OC
Response: 33.9

Request: Give its growth value. Item: c1cc(OCCN2CCCCCC2)ccc1CNc1ccc2nc(CCC3CCCCC3)[nH]c2c1
Response: 56.2

Request: Give its growth value. Item: c1cc(OCCN2CCCC2)ccc1CNc1ccc2nc(CCC3CCCCC3)[nH]c2c1
Response: 42.2

Request: Give its growth value. Item: C#Cc1cccc(Nc2ncnc3cc(NC(=O)CCl)ccc23)c1
Response: -86.2

Request: Give its growth value. Item: CS(=O)(=O)Nc1cc(-c2ccc3ncnc(Nc4ccc5c(cnn5Cc5ccncc5)c4)c3c2)cnc1Cl
Response: 21.1

Request: Give its growth value. Item: Nc1ncnc2c1N=C(c1ccc(F)cc1)CC(c1cccc(Nc3ccnc4cc(Cl)ccc34)c1)N2 (centres undefined)
Response: 39.1
